The origin of these recorded values is paper doi:10.1101/2025.08.17.670703v1.

# measurement target: HEV-PLpro (HEV papain-like cysteine protease) (Hepatitis E virus (strain Pakistan), UniProt P33424)
# Sequence (P33424 432-592): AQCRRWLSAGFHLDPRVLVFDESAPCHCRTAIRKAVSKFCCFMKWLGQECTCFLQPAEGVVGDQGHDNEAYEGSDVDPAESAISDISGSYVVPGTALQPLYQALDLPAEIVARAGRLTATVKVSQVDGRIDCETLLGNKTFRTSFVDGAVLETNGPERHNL
# experiment notes: fluorogenic protease assay
observation type: IC50

According to the records, this compound `NC(=O)c1ncn([C@@H]2O[C@H](CO)[C@@H](O)[C@H]2O)n1` displays IC50 of 78.3 µM

----------
# measurement target: HEV-PLpro (HEV papain-like cysteine protease) (Hepatitis E virus (strain Pakistan), UniProt P33424)
# experiment notes: fluorogenic protease assay, secondary plot of Km' vs [I]
observation type: pKi
One number for each entry, as −log10 of the molar value.

According to the records, this compound `NC(=O)c1ncn([C@@H]2O[C@H](CO)[C@@H](O)[C@H]2O)n1` displays pKi of 4.32
